studyTarget: L-lactate dehydrogenase A chain (Homo sapiens, UniProt P00338)
assayMethodText: Binding affinity to human recombinant carboxy-terminal avi-tagged LDHA (1 to 331) expressed in Escherichia coli by surface plasmon resonance analysis presence of NADH
pKd: −log10 of the molar value.
Give YES when the value for pKd is at least 5. Give NO when it is less.

Use the examples below as a reference point.
compound	studyTarget	assignedCategory
N#Cc1c(-c2ccc(Cl)cc2)nc(SCC(=O)Nc2ccc(S(N)(=O)=O)cc2)[nH]c1=O	L-lactate dehydrogenase A chain (Homo sapiens, UniProt P00338)	YES
N#Cc1c(-c2ccccc2)nc(SCC(=O)Nc2ccc(S(N)(=O)=O)cc2)[nH]c1=O	L-lactate dehydrogenase A chain (Homo sapiens, UniProt P00338)	NO
CC(Sc1nc(-c2ccc(Cl)c(Cl)c2)c(C#N)c(=O)[nH]1)C(=O)Nc1ccc(S(N)(=O)=O)cc1 (racemic)	L-lactate dehydrogenase A chain (Homo sapiens, UniProt P00338)	YES

Exam item: Given CC(C)c1ccc(NC(=O)CSc2nc(-c3ccc(Cl)cc3)c(C#N)c(=O)[nH]2)cc1 , state whether its pKd is at least 5.
Marked response: NO

Exam item: Given N#Cc1c(-c2ccc(Cl)cc2)nc(SCC(=O)Nc2ccc(F)c(Cl)c2)[nH]c1=O , state whether its pKd is at least 5.
Marked response: NO
